# systemUnderTest: BCL-2 binding to BAK peptide (Homo sapiens, UniProt P10415)
# Sequence (P10415 whole entry): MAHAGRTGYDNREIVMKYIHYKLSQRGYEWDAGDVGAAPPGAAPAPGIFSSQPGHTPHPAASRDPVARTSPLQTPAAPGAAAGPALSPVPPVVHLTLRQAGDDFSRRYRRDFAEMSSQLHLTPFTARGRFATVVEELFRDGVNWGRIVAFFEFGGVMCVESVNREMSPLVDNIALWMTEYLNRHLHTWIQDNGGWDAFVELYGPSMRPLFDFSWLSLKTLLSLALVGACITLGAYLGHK
Item-by-item account of IC50

Past entries and their recorded results:
>>> resultvalue("CCCCN(CCCC)C(=O)c1cc(C)n(-c2ccc(-c3ccc(C(=O)NC)c(Cl)c3)cc2C(=O)N2Cc3ccccc3C[C@H]2CO)n1 [Example 58]")
"0.111 to 0.112 µM"
>>> resultvalue("CCCCN(CCCC)C(=O)c1cc(C)n(-c2ccc(N3CCN(C(=O)OC(C)(C)C)CC3=O)cc2C(=O)N2Cc3ccccc3C[C@H]2CO)n1 [Example 16]")
"1.34 to 1.45 µM"

Let us examine a further case.
Input: Would you mind telling me what IC50 value was observed for CCCCN(CCCC)C(=O)c1cc(C)n(-c2ccc(-c3ccc(S(=O)(=O)N4CCCCC4)cc3)cc2C(=O)N2Cc3ccccc3C[C@H]2CO)n1 [Example 26] ?
Output: 0.437 to 0.484 µM

====

# systemUnderTest: BCL-2 binding to BAK peptide (Homo sapiens, UniProt P10415)
measureName: IC50

Input: Look up IC50 for this molecule: CCCCN(CCCC)C(=O)c1nn(-c2ccc(-c3cnn(Cc4ccccc4)c3)cc2C(=O)N2Cc3ccccc3C[C@H]2CO)c(C)c1Cl
Output: 0.103 to 0.115 µM

Input: Next: CCCCN(CCCC)C(=O)c1cc(C)n(-c2ccc(-c3ccc(OC)c(Cl)c3)cc2C(=O)N2Cc3ccccc3C[C@H]2CO)n1
Output: 0.51 to 0.591 µM

Input: Query CCCCN(CCCC)C(=O)c1cc(C)n(-c2ccc(-c3cc(C)cc(F)c3)cc2C(=O)N2Cc3ccccc3C[C@H]2CO)n1 next
Output: 0.936 to 0.976 µM

====

# IC50 per entry for BCL-2 binding to BAK peptide (Homo sapiens, UniProt P10415)

>>> resultvalue("CCCCN(CCCC)C(=O)c1cc(C)n(-c2ccc(-c3ccc(Cl)c(C(N)=O)c3)cc2C(=O)N2Cc3ccccc3C[C@H]2CO)n1")
"0.426 to 0.429 µM"

Input: Requested field: IC50. Item: CCCCN(CCCC)C(=O)c1cc(C)n(-c2ccc(-c3ccc(F)c(F)c3)cc2C(=O)N2Cc3ccccc3C[C@H]2CO)n1
Output: 2.5 to 2.96 µM

Input: Input CCCCN(CCCC)C(=O)c1cc(C)n(-c2ccc(-c3ccc(C(=O)N4CCCC4)c(F)c3)cc2C(=O)N2Cc3ccccc3C[C@H]2CO)n1
Output: 0.159 to 0.171 µM

Input: Next molecule up: CCCCN(CCCC)C(=O)c1nn(-c2ccc(-c3ccccc3)cc2C(=O)N2Cc3ccccc3C[C@H]2CO)c(C)c1Cl
Output: 1.4 to 1.49 µM

Input: Here is the next molecule: CCCCN(CCCC)C(=O)c1cc(C)n(-c2ccc(-c3c(OC)cccc3OC)cc2C(=O)N2Cc3ccccc3C[C@H]2CO)n1
Output: 6.34 to 6.9 µM

Input: Try this molecule too: CCCCN(CCCC)C(=O)c1cc(C)n(-c2ccc(-c3cccc(Cl)c3Cl)cc2C(=O)N2Cc3ccccc3C[C@H]2CO)n1
Output: 7.41 to 7.54 µM

====

Overview of recorded IC50 for various molecules
# systemUnderTest: BCL-2 binding to BAK peptide (Homo sapiens)

These recorded examples may help you get a feel for the data.
>>> resultvalue("CCCCN(CCCC)C(=O)c1cc(C)n(-c2ccc(-c3cccc(C)c3)cc2C(=O)N2Cc3ccccc3C[C@H]2CO)n1")
"503 to 589 nM"
>>> resultvalue("CCCCN(CCCC)C(=O)c1cc(C)n(-c2ccc(-c3ccc(S(C)(=O)=O)cc3)cc2C(=O)N2Cc3ccccc3C[C@H]2CO)n1")
"432 to 458 nM"

Input: Quick check: IC50 of CCCCN(CCCC)C(=O)c1cc(C)n(-c2ccc(N3CCN(c4ccccc4)CC3=O)cc2C(=O)N2Cc3ccccc3C[C@H]2CO)n1 ?
Output: 3150 to 3300 nM

Recorded values, source patent US20140350014A1.
